target: T1, human GPC3 on cells (human, UniProt P51654 25-554); assay: FACS, Huh-7 cells
T1 construct: whole, on cells; over-expressed on CHOK1 cells or endogenous on HEPG2, Hep3B and Huh-7 hepatocellular carcinoma cells; the cell line is named under assay; also called GPC3-CHOK1 cells; human GPC3 over-expressed CHOK1 cells

{"columns": ["BINDER", "EC50, µg/mL"],
 "data": [
  ["52H5D3B8-6#-VH2+VL1 (antibody, V domains shown, humanized) VH: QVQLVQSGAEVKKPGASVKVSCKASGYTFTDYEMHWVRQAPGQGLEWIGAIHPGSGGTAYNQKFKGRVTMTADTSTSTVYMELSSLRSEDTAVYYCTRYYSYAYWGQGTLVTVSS VL: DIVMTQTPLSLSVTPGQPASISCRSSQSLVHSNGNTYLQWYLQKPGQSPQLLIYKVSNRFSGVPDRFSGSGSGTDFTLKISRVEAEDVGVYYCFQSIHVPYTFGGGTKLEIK", 0.0427],
  ["52H5D3B8-6#-VH2+VL4 (antibody, V domains shown, humanized) VH: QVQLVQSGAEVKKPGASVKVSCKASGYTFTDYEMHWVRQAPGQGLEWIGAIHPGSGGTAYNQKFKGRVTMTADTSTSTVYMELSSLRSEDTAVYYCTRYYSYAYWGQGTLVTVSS VL: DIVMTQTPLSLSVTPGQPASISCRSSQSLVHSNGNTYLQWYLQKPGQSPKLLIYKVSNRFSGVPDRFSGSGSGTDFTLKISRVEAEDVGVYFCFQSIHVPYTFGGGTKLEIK", 0.0381],
  ["52H5D3B8-6#-VH2+VL3 (antibody, V domains shown, humanized) VH: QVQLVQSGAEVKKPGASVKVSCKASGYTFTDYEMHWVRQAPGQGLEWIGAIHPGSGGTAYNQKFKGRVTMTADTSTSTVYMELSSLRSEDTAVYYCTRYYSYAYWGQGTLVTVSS VL: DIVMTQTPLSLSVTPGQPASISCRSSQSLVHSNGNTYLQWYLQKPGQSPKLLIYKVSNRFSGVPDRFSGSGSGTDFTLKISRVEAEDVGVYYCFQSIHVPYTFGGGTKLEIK", 0.0384]
]}
